All values here come from PubChem BioAssay AID1963826.

# Tested on: 926638-142-R-J1-PDC complex spheroid viability;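 further: spheroids exposed to drugs for one week before readout; percent viability relative to DMSO vehicle control wells set as 100%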
# Test Name: Anticancer human tumor 926638-142-R-J1-PDC patient-derived endometrial carcinoma cell line growth inhibition [POLQ]
# Condition Notes: second compound 3.16 µM; first compound 0.1 µM; active compounds read low
Observable: viability, T/C (%)
Answer format: numeric, % implied, no suffix.

Param item = COc1cc(C2c3cc4c(cc3C(OC3OC5COC(C)OC5C(O)C3O)C3COC(=O)C23)OCO4)cc(OC)c1O (stereo not given) + Nc1ccc(C#CCN(C(=O)Cc2ncc(C(F)(F)F)cc2C(F)(F)F)c2ccc(F)cc2)nn1 ; retrieve measured viability, T/C.
87.2

Returns the measured viability, T/C for the input compound. Input: CCc1c2c(nc3ccc(O)cc13)-c1cc3c(c(=O)n1C2)COC(=O)[C@]3(O)CC + Nc1ccc(C#CCN(C(=O)Cc2ncc(C(F)(F)F)cc2C(F)(F)F)c2ccc(F)cc2)nn1
20.6

Field request: viability, T/C | item: O=C(c1cc(Cc2n[nH]c(=O)c3ccccc23)ccc1F)N1CCN(C(=O)C2CC2)CC1 + Nc1ccc(C#CCN(C(=O)Cc2ncc(C(F)(F)F)cc2C(F)(F)F)c2ccc(F)cc2)nn1
89.9

// lookup viability, T/C for O=C(Nc1ccc(O)c(NS(=O)(=O)c2ccc(F)cc2)c1)c1ccc(-c2ccccc2)cc1 + Nc1ccc(C#CCN(C(=O)Cc2ncc(C(F)(F)F)cc2C(F)(F)F)c2ccc(F)cc2)nn1
82.4

Suppose we examine the compound CCc1cc2c(N3CCc4c(cc(Cn5ccnc5)cc4-c4cn(C)nc4C(F)(F)F)C3=O)cc(C)nc2c(OC)n1 + Nc1ccc(C#CCN(C(=O)Cc2ncc(C(F)(F)F)cc2C(F)(F)F)c2ccc(F)cc2)nn1 ; what viability, T/C value has been reported?
58.2
